// provenance: ChEMBL document CHEMBL3414469

# Assayed System: UniProtKB Q9UBC3
# Procedure Text: Inhibition of His6-tagged human recombinant DNMT3b expressed in insect Sf9 cells assessed as reduction in DNA methyltransferase activity using 5'-biotinylated 45-bp unmethylated or hemimethylated oligonucleotide substrates and [3H]-AdoMet by liquid scintillation counting method
pIC50: −log10 of the molar value.
Measure Name: pIC50

P: Cc1cc(Nc2ccc(NC(=O)c3ccc(Nc4ccnc5ccccc45)cc3)cc2)nc(N)n1
Q: C[C@@H]1O[C@@H](CC(=O)O)CC2=C1C(=O)c1c(O)cccc1C2=O [NANAFROCIN]
### Prompt Between item P and item Q , which reported pIC50 is smaller? Response format: the label of the selected entry.
### Response P

----------
# Procedure Text: Half life in patient with myelodysplastic syndrome dosed via infusion
# Type: ADME, organism-based
# Experimental Conditions: human, in vivo, iv
Measure Name: half-life (min)
Field: numeric (min). Do not append units.

### Prompt Output measured half-life for this item: Nc1ncn([C@H]2C[C@H](O)[C@@H](CO)O2)c(=O)n1
### Response 10

----------
# Procedure Text: Half life in sc dosed patient with myelodysplastic syndrome
# Experimental Conditions: human, in vivo
Measure Name: half-life (min)
Provide the reading as a plain figure in min.

### Prompt Indicate the recorded half-life value for this compound: Nc1ncn([C@@H]2O[C@H](CO)[C@@H](O)[C@H]2O)c(=O)n1
### Response 41
